System: Escherichia coli TOP10;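 note: peptides expressed intracellularly from a pBAD plasmid library in pooled LB shake-flask culture, induced with 0.3% L-arabinose, DNA abundance read by NGS, three biological replicates, DESeq2 with apeglm shrinkage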
test_name: shrunken log2 fold change of peptide-encoding DNA abundance (4.5 h post-induction vs induction); higher = less antimicrobial activity (less host growth inhibition)
condition_description: time post-induction: 4.5 h; library: site-saturation at positions 5, 18, 19, 20
In this section, each of the sequences is paired with its reported shrunken log2 fold change.
readout_label: shrunken log2 fold change

In [3]: df
Out[3]:
        biopolymer_sequence              readout_label  measured
 0  RRIRTRPPRLPRPRPRPRYGPRP  shrunken log2 fold change    -0.284
 1  RRIRQRPPRLPRPRPRPATFPRP  shrunken log2 fold change     0.157
 2  RRIRPRPPRLPRPRPRPHMGPRP  shrunken log2 fold change    -0.461
 3  RRIRTRPPRLPRPRPRPKFKPRP  shrunken log2 fold change    -0.225
 4  RRIRTRPPRLPRPRPRPFNAPRP  shrunken log2 fold change    -0.344
 5  RRIRPRPPRLPRPRPRPWHIPRP  shrunken log2 fold change   -0.0921
 6  RRIRSRPPRLPRPRPRPDIFPRP  shrunken log2 fold change    -0.135
 7  RRIRLRPPRLPRPRPRPWSKPRP  shrunken log2 fold change    -0.547
 8  RRIRMRPPRLPRPRPRPFAGPRP  shrunken log2 fold change   -0.0745
 9  RRIRTRPPRLPRPRPRPWVVPRP  shrunken log2 fold change   -0.0414
10  RRIRYRPPRLPRPRPRPWCKPRP  shrunken log2 fold change  -0.00141
11  RRIRSRPPRLPRPRPRPKQLPRP  shrunken log2 fold change    0.0372
12  RRIRGRPPRLPRPRPRPLTNPRP  shrunken log2 fold change     0.364
13  RRIRSRPPRLPRPRPRPDRAPRP  shrunken log2 fold change     0.611
14  RRIRQRPPRLPRPRPRPITNPRP  shrunken log2 fold change    -0.158
15  RRIRERPPRLPRPRPRPNILPRP  shrunken log2 fold change    -0.991
16  RRIRQRPPRLPRPRPRPSIRPRP  shrunken log2 fold change    -0.523
17  RRIRMRPPRLPRPRPRPHSPPRP  shrunken log2 fold change    -0.114
18  RRIRWRPPRLPRPRPRPEGTPRP  shrunken log2 fold change     0.103
19  RRIRIRPPRLPRPRPRPMEKPRP  shrunken log2 fold change    -0.229
20  RRIRKRPPRLPRPRPRPETQPRP  shrunken log2 fold change    -0.119
21  RRIRARPPRLPRPRPRPGQWPRP  shrunken log2 fold change     0.466
22  RRIRERPPRLPRPRPRPNQFPRP  shrunken log2 fold change    -0.525
23  RRIRDRPPRLPRPRPRPFFFPRP  shrunken log2 fold change     0.483
24  RRIRERPPRLPRPRPRPIAPPRP  shrunken log2 fold change     0.235
25  RRIRQRPPRLPRPRPRPGRSPRP  shrunken log2 fold change     0.105
26  RRIRRRPPRLPRPRPRPESVPRP  shrunken log2 fold change     0.075
27  RRIRVRPPRLPRPRPRPDGYPRP  shrunken log2 fold change  -0.00884
28  RRIRHRPPRLPRPRPRPPHDPRP  shrunken log2 fold change     0.047
29  RRIRHRPPRLPRPRPRPALNPRP  shrunken log2 fold change    0.0444
30  RRIRPRPPRLPRPRPRPCTMPRP  shrunken log2 fold change    -0.191
31  RRIRRRPPRLPRPRPRPYCKPRP  shrunken log2 fold change     -0.24
32  RRIRSRPPRLPRPRPRPPDAPRP  shrunken log2 fold change     0.415
33  RRIRERPPRLPRPRPRPRRTPRP  shrunken log2 fold change     0.176
34  RRIRMRPPRLPRPRPRPKCFPRP  shrunken log2 fold change    0.0196
35  RRIRWRPPRLPRPRPRPFCMPRP  shrunken log2 fold change    -0.218
36  RRIRLRPPRLPRPRPRPIEAPRP  shrunken log2 fold change  -0.00911
37  RRIRTRPPRLPRPRPRPTTSPRP  shrunken log2 fold change    0.0942
38  RRIRTRPPRLPRPRPRPSVNPRP  shrunken log2 fold change     -1.91
39  RRIRNRPPRLPRPRPRPMQCPRP  shrunken log2 fold change    0.0637
40  RRIRIRPPRLPRPRPRPSTNPRP  shrunken log2 fold change    -0.573
41  RRIRARPPRLPRPRPRPPWQPRP  shrunken log2 fold change     0.675
42  RRIRLRPPRLPRPRPRPYICPRP  shrunken log2 fold change   -0.0262
43  RRIRMRPPRLPRPRPRPDSIPRP  shrunken log2 fold change    0.0402
44  RRIRDRPPRLPRPRPRPLNQPRP  shrunken log2 fold change    -0.009
45  RRIRCRPPRLPRPRPRPYEAPRP  shrunken log2 fold change    -0.511
46  RRIRGRPPRLPRPRPRPCVVPRP  shrunken log2 fold change     0.293
47  RRIRNRPPRLPRPRPRPQIFPRP  shrunken log2 fold change     -0.27
48  RRIRIRPPRLPRPRPRPDFFPRP  shrunken log2 fold change    -0.415
49  RRIRTRPPRLPRPRPRPIWHPRP  shrunken log2 fold change      0.12
50  RRIRHRPPRLPRPRPRPSDYPRP  shrunken log2 fold change    -0.343
51  RRIRKRPPRLPRPRPRPQICPRP  shrunken log2 fold change   -0.0742
52  RRIRSRPPRLPRPRPRPPTGPRP  shrunken log2 fold change     0.369
53  RRIRYRPPRLPRPRPRPANMPRP  shrunken log2 fold change    -0.683
54  RRIRNRPPRLPRPRPRPFGCPRP  shrunken log2 fold change    -0.128
55  RRIRKRPPRLPRPRPRPQHYPRP  shrunken log2 fold change   -0.0715
56  RRIRRRPPRLPRPRPRPNHSPRP  shrunken log2 fold change    -0.321
57  RRIRRRPPRLPRPRPRPAEMPRP  shrunken log2 fold change     0.219
58  RRIRHRPPRLPRPRPRPVRLPRP  shrunken log2 fold change    0.0217
59  RRIRYRPPRLPRPRPRPDYIPRP  shrunken log2 fold change   -0.0327
60  RRIRTRPPRLPRPRPRPAGMPRP  shrunken log2 fold change    0.0244
61  RRIRWRPPRLPRPRPRPAQRPRP  shrunken log2 fold change     0.418
62  RRIRGRPPRLPRPRPRPDQVPRP  shrunken log2 fold change     0.656
